Target: PDE1A (Homo sapiens)
Sequence (P54750 whole entry, species assumed): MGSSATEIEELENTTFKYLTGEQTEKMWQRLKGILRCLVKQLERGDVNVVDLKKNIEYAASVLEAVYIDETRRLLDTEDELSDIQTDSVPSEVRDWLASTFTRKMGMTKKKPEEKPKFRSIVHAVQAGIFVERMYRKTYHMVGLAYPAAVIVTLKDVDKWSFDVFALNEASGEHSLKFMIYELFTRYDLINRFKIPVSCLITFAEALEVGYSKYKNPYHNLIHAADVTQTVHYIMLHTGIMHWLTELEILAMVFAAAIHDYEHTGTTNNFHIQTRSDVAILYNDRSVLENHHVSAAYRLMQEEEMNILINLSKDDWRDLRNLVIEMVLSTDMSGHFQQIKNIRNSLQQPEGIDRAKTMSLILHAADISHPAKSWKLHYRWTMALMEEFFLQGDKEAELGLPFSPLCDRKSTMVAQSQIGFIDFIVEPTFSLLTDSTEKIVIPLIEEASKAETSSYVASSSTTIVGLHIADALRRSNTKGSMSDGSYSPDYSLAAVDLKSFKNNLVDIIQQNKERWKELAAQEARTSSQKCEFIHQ
pIC50: −log10 of the molar value.
property-name: pIC50

>>> print(df.to_string())
                                   molecule       subject_of_test  result_number
0  CC[C@@]12C=C(COCc3cc(Br)cc(Br)c3)n3c4c(c5ccccc53)CCN(CCC1)[C@H]42 [Compound 23]  PDE1A (Homo sapiens)           4.24
1  CCC12C=C(COCc3cccc(C)c3)n3c4c(c5ccccc53)CCN(CCC1)C42 (stereo not shown) [Compound 4]  PDE1A (Homo sapiens)           5.45

[A] CCC12C=C(COCc3cnc(Cl)s3)n3c4c(c5ccccc53)CCN(CCC1)C42 (stereo not shown) [Compound 25]
[B] CC[C@@]12C=C(COCc3cccc(C(F)(F)F)c3)n3c4c(c5ccccc53)CCN(CCC1)[C@H]42 [Compound 17]
Prompt: Which entry has a larger number for pIC50, A or B ? Select an item and report its label.
Completion: A

###

Biological target: UniProt P54750
Assay: PDE1A enzyme inhibition (fluorescence polarization, FAM-cyclic-3',5'-AMP)
Type: biochemical
Settings: 15 ng/mL PDE1A, 100 nM FAM-cAMP, 25 °C, 1 h
pIC50: −log10 of the molar value.
property-name: pIC50

                                   molecule  result_number
0  CC[C@@]12C=C(COCc3ccc(C#N)cc3)n3c4c(c5ccccc53)CCN(CCC1)[C@H]42 [Compound 14]           4.81

[I] CC[C@@]12C=C(COCc3cccc(Br)c3)n3c4c(c5ccccc53)CCN(CCC1)[C@H]42 [Compound 12]
[II] CC[C@@]12C=C(COCc3ccc(Cl)cc3)n3c4c(c5ccccc53)CCN(CCC1)[C@H]42 [Compound 8]
Prompt: Which record shows the lower pIC50: the first, I , or the second, II ? Your choice should be expressed through its label.
Completion: II
(II: 4.31, I: 4.90)
